Where these numbers come from: patent US20190100588A1

Molecular target: T1, Peptide 2a
T1 peptide: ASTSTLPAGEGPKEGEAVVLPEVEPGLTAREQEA
Assay: ELISA
property-label: EC50 (ng/mL)

binder="antibody 2610 (antibody, V domains shown) VH: QVQLHQPGTSLVKPGASVKLSCKASGYSFSSYYMHWVKQRPGQGLEWIGTIHPSDSTTNCNQKFKGKATLTVDKSSRTAYMQLNSLTFEDSAVYYCANFVYWGQGTSVTVSS VL: DIVITQDELSNPVTSGDSVSISCRSSKSLLYKDGKTYLNWFLQRPGQSPQLLIYVVSTRASGVSDRFSGSGSGTDFTLEISRVKAEDVGVYYCQQLVEYPYTFGGGTKLEIK" property_label=EC50 experimental_value=3.8
binder="antibody 1610 (antibody, V domains shown) VH: QVQLHQPGTSLVKPGASVKLSCKASGYNFSSYYMHWVKQRPGQGLEWIGTIHPSDSTTNCNQKFKGKATLTVDKSSRTAYMQLNSLTFEDSAVYYCANFVYWGQGTSVTVSS VL: DIVITQDELSNPVTSGDSVSISCRSSKSLLYKDGKTYLNWFLQRPGQSPQLLIYVVSTRASGVSDRFSGSGSGTDFTLEISRVKAEDVGVYYCQQLVEYPYTFGGGTKLEIK" property_label=EC50 experimental_value=3.9
binder="antibody 2810 (antibody, V domains shown) VH: QVQLHQPGTSLVKPGASVKLSCKASGYSFSSYYMHWVKQRPGQGLEWIGTIHPSDSTTNYNQKFKGKATLTVDKSSRTAYMQLNSLTFEDSAVYYCANFVYWGQGTSVTVSS VL: DIVITQDELSNPVTSGDSVSISCRSSKSLLYKDGKTYLNWFLQRPGQSPQLLIYVVSTRASGVSDRFSGSGSGTDFTLEISRVKAEDVGVYYCQQLVEYPYTFGGGTKLEIK" property_label=EC50 experimental_value=2.8
binder="antibody 2510 (antibody, V domains shown) VH: QVQLHQPGTSLVKPGASVKLSCKASGYNFSSYYMHWVKQRPGQGLEWIGTIHPSDSTTNYNQKFKGKATLTVDKSSRTAYMQLNSLTFEDSAVYYCANFVYWGQGTSVTVSS VL: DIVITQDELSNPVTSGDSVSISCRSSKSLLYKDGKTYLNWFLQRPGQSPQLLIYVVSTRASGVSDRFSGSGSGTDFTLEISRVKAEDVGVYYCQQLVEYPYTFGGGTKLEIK" property_label=EC50 experimental_value=4.6
